# Test system: HT-29
# method description: NCI tumour cell line growth inhibition, 48 h
Activity calls are given as the source filed them. No stated cut-off is given here; in the data, active = GI50 up to about 1.1 µM and inactive = higher.
parameter: GI50

Example molecules with recorded GI50:
molecule	GI50
CCCCN(CC)C(=O)C(=O)C1C(=O)Nc2ccccc2[S+]1[O-] (stereo unspecified)	> 100 µM (inactive)
CCOCNC(=O)N(COCC)COCC	> 100 µM (inactive)
CSc1nc2c(c(N3CCOCC3)n1)C(O)n1c(nc3ccccc31)S2 (stereo unspecified)	> 100 µM (inactive)
CC(=O)c1ccc2c(ccc(=O)n2C)c1	> 100 µM (inactive)
CCC1OC(=O)CC(O)C(C)C(OC2OC(C)CC(N(C)C)C2O)C(CC=O)CC(C)C(=O)/C=C/C2(C)OC2C1C (stereo unspecified)	17.9 µM (inactive)

Field: next molecule
The molecule identified as COC(=O)c1ccc2c(c1)sc1nc(-c3ccc(OC)cc3)cn12 registered its GI50 at 83.4 µM (inactive)

----------
# System: KM12
# method description: NCI tumour cell line growth inhibition, 48 h
Activity calls are given as the source filed them. No stated cut-off is given here; in the data, active = GI50 up to about 1.1 µM and inactive = higher.
Use one of these outcomes when replying: 1 = active, 0 = inactive

compound	tested target	qualitative label
Cc1ccc(NC(=O)CC/C(CC(=O)c2ccc(Cl)cc2)=N\NC(=O)C(=O)NN)cc1C	KM12	0
S=c1sc2c(s1)SCc1cccc(n1)CSc1sc(=S)sc1SCc1cccc(n1)CS2	KM12	0
C=CCNC1=C2C[C@@H](C)C[C@@H](OC)[C@@H](OC(=O)CCCN)[C@H](C)/C=C(\C)[C@@H](OC(N)=O)[C@H](OC)/C=C\C=C(/C)C(=O)NC(=CC1=O)C2=O	KM12	0
COC(=O)c1ccccc1/C=C1/Cc2ccccc2C1=O	KM12	0
O=C(CP(c1ccccc1)c1ccccc1)c1cccc(C(=O)CP(c2ccccc2)c2ccccc2)c1	KM12	0
O=C1N[C@H]2c3c(Cl)sc(Cl)c3C(=O)[C@H]2O1	KM12	0

Exercise: What call does the record list for COc1cccc(-c2cc(=O)c3ccc(C)nc3[nH]2)c1 ?
Key: 1

Exercise: What call does the record list for C=CCNC1=C2C[C@@H](C)C[C@@H](OC)[C@H](OC(=O)CN)[C@H](C)/C=C(\C)[C@@H](OC(N)=O)[C@H](OC)/C=C\C=C(/C)C(=O)NC(=CC1=O)C2=O ?
Key: 1

Exercise: What call does the record list for C[Si](C)(C)OC1(C#N)C2C3CC4C2C(=O)C2C4C3C21 (stereo not given) ?
Key: 0

Exercise: What call does the record list for CC1=[N+](C)CCCN1C ?
Key: 0

Exercise: What call does the record list for O=C1C2C3CC4C5C3C1C5C1(SCCS1)C42 (stereo not given) ?
Key: 0

Exercise: What call does the record list for O=C1C(Cl)=C(Sc2nnc3c4ccccc4c4ccccc4c3n2)C(=O)c2ccccc21 ?
Key: 0

Exercise: What call does the record list for O=C(O)CC1OCC=C2CN3CCC45c6ccccc6NC4C1C2CC35 (stereo not given) ?
Key: 0

Exercise: What call does the record list for CC(=O)Oc1cc(C)c2c(c1OC(C)=O)CC1(O2)[C@@H](C)CCC2[C@@]3(C)CC[C@H](OC(C)=O)C(C)(C)C3CC[C@]21C (stereo not given in full) ?
Key: 0

Exercise: What call does the record list for O=C1NC(=O)/C(=C/c2ccc(S(=O)(=O)N/N=C/c3ccc(Cl)cc3)cc2)N1 ?
Key: 0

Values compiled from ChEMBL document CHEMBL1201862.
